System: ECU
Test: qHTS profiling for inhibitors of Plasmodium falciparum proliferation (AID 504749); also: nearly all actives have a fitted effect of over 60% in size
Settings: P. falciparum in erythrocytes, SYBR Green DNA, 72 h; series mostly up to 12.8 µM
Results filed as inconclusive are left out. Active and inactive are the calls of the source. Calls follow the shape of the dose curve; as a rule, active = well fitted inhibition curve with a large enough effect; inconclusive = small, poorly fitted or top-dose-only effect; inactive = flat fitted curve, though single readings scatter.
Classes used: active, inactive

>>> class("COC1C=CO[C@@]2(C)Oc3c(C)c(O)c4c(O)c(c(C=NN5CCN(C)CC5)c(O)c4c3C2=O)NC(=O)/C(C)=C\\C=CC(C)C(O)[C@@H](C)C(O)C(C)[C@H](OC(C)=O)C1C (some centres undefined)")
"active"
>>> class("O=C(OC[C@@H](O)CO)c1ccccc1Nc1ccnc2cc(Cl)ccc12")
"inactive"
>>> class("CC[C@H]1NC(=O)c2cc(S(N)(=O)=O)c(Cl)cc2N1")
"inactive"
>>> class("C=CCN1C(=CCO)[C@H]2C[C@H]3[C@@H]1CC[C@@]31c3ccccc3N3C=C4[C@@H]5N(/C=C/2[C@H]31)c1ccccc1[C@]51CC[C@H]2[C@H]1C[C@@H]4/C(=C/CO)N2CC=C")
"inactive"

Just for reference, PubChem BioAssay (NCATS) is where these values come from.
